Lab note: IC50 readings collected with Histone acetyltransferase KAT6A [507-778] (Human, UniProt Q92794) for the following compounds.
Sequence (Q92794 whole entry): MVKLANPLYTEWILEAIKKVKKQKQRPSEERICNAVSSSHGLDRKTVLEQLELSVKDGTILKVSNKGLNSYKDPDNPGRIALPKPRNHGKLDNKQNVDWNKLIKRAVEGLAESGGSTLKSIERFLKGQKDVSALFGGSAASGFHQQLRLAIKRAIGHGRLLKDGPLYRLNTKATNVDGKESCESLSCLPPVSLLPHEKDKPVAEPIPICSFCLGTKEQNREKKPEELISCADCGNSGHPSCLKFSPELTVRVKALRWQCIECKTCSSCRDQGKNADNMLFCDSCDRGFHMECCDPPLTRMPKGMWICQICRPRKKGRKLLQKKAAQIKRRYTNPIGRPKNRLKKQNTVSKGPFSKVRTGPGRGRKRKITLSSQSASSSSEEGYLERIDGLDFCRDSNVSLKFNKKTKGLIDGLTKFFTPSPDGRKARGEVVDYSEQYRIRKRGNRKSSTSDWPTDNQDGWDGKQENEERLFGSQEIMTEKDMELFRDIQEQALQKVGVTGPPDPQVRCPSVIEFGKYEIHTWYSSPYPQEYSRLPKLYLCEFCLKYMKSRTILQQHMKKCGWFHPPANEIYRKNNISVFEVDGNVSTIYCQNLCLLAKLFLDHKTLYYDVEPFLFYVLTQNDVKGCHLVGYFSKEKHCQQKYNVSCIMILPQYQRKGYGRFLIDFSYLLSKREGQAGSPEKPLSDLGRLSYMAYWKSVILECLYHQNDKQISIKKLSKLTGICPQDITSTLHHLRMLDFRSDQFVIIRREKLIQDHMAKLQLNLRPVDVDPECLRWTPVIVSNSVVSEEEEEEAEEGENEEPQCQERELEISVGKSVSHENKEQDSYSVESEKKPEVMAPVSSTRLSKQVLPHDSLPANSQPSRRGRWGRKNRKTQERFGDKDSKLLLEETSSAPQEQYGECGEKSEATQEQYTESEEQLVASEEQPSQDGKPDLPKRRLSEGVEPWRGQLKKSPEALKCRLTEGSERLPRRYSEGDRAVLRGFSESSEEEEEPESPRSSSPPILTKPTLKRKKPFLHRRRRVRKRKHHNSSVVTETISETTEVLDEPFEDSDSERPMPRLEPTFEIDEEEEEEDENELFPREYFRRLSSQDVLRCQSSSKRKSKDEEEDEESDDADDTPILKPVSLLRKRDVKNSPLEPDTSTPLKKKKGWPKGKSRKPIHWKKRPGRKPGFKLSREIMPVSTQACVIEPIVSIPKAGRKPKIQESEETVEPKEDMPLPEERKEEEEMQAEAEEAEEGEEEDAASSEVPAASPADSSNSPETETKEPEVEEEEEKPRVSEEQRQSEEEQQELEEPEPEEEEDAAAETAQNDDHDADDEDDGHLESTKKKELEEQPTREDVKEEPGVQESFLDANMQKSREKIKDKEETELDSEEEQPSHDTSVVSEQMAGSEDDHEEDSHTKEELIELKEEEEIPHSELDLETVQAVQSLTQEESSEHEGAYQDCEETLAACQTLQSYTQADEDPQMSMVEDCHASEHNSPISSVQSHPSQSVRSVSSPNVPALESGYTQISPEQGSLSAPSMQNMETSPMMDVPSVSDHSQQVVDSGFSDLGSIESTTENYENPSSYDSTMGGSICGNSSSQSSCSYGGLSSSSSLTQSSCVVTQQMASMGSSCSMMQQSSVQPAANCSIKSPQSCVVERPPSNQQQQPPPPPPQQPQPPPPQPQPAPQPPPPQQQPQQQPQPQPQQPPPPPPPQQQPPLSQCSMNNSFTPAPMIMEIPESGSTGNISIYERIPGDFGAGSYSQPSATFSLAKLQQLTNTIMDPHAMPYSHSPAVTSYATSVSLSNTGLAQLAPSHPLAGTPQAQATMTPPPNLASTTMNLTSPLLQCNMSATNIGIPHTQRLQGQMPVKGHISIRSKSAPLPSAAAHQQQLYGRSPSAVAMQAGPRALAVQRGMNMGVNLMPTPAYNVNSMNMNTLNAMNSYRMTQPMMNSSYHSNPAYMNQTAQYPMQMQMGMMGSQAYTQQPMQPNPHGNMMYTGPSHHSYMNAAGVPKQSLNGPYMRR
Hi! Could you send only the number? It should be in nM, unit omitted.

> print(dat)
                                   compound  quantity.kind  reading.unit  meas.value
1  O=C(NS(=O)(=O)c1cccc2c1OC(F)(F)C(F)(F)O2)c1cc2c(F)cc(N3CCC3)cc2o1 [WO2022081807, Example 140]           IC50            nM          28
2  COc1ccc(-c2cccc(F)c2)cc1S(=O)(=O)NC(=O)c1cc2c(F)cc(N3CCC3)cc2o1 [WO2022081807, Example 198]           IC50            nM          12
3  Cc1ccc2cccc(S(=O)(=O)NC(=O)c3cc4c(F)cc(N5CCC5C)cc4o3)c2n1 (centres undefined) [WO2022081807, Example 221]           IC50            nM          62
4  Cc1ccc(OC(C)C)c(S(=O)(=O)NC(=O)c2cc3c(F)cc(N4CCC4)cc3o2)c1 [WO2022081807, Example 134]           IC50            nM          18
5  CCOc1cccc(Oc2ccccc2)c1S(=O)(=O)NC(=O)c1cc2c(F)cc(N3CCC3)cc2o1 [WO2022081807, Example 7]           IC50            nM        4.15

Query string: What does the data say about its IC50? Entry: CCS(=O)(=O)c1nc2ccccn2c1S(=O)(=O)NC(=O)c1cc2c(F)cc(N3CC(F)C3)cc2o1 [WO2022081807, Example 167]
Result string: 517

Query string: What does the data say about its IC50? Entry: COc1ccc(C)cc1S(=O)(=O)NC(=O)c1cc2c(F)cc(N3CCC3)cc2o1 [WO2022081807, Example 156]
Result string: 20

Query string: What does the data say about its IC50? Entry: CCOc1cccc(C(C)C)c1S(=O)(=O)NC(=O)c1cc2c(F)cc(N3CCC3)cc2o1 [WO2022081807, Example 23]
Result string: 29

Query string: What does the data say about its IC50? Entry: C[C@@H](Oc1ccccc1S(=O)(=O)NC(=O)c1cc2c(F)cc(N3CCC3)cc2o1)C(F)(F)F [WO2022081807, Example 14]
Result string: 28
